test system: CDC2L2; conditions: concentration: 1 μM, replicates: in singlicate; n = 1;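 note: KINOMEscan kinase panel screen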
Label key: Satisfied means %Inh under 1%; Not satisfied means %Inh of 1% or more.

Past entries and their recorded results:
CNc1nccc(-c2ccc3c(N)n[nH]c3c2)n1 [GSK2206003] :: Not satisfied
COc1ccc(C2=C(Nc3cccc(O)c3)C(=O)NC2=O)cc1 [SB-390766] :: Satisfied
Nc1ncc(-c2ccc3nccc(-c4ccncc4)c3c2)cc1S(=O)(=O)N1CCCCC1 [GSK1693850] :: Not satisfied
CCOc1nccc(-c2c(-c3ccc(F)cc3)ncn2C2CCNCC2)n1 [SB-249175] :: Not satisfied

Inquiry: Determine if COc1cc(Nc2nccc(N3CCC(NC(=O)Nc4ccc5c(c4)OCO5)C3)n2)cc(OC)c1OC (centres unmarked) [GSK1379766] shows %Inh strictly lower than 1%.
Reply text: Not satisfied

Inquiry: Determine if CN(C)CCNS(=O)(=O)c1ccc(-c2ccnc3[nH]ccc23)cc1 [GSK977620] shows %Inh strictly lower than 1%.
Reply text: Satisfied

Inquiry: Determine if COc1cccc(CC(=O)N2CCc3cc(-c4cn(C)c5ncnc(N)c45)ccc32)c1 [GSK2608899] shows %Inh strictly lower than 1%.
Reply text: Not satisfied

Inquiry: Determine if O=C1NC(=O)C(c2ccccc2Cl)=C1Nc1cccc(Cl)c1 [SB-342409] shows %Inh strictly lower than 1%.
Reply text: Not satisfied

Inquiry: Determine if Cc1cc(-c2ccnc(Nc3cccc(C#N)c3)n2)cc(C)c1O [GSK1440913] shows %Inh strictly lower than 1%.
Reply text: Not satisfied

Inquiry: Determine if Cn1cc(-c2ccc3c(c2)CCN3C(=O)Cc2cc(F)cc(C(F)(F)F)c2)c2c(N)ncnc21 [GSK2635225] shows %Inh strictly lower than 1%.
Reply text: Not satisfied

Inquiry: Determine if Cc1ccc(NC(=O)c2ccnc(N3CCCCC3)c2)cc1-c1ccc(C(=O)NCC2CC2)cc1 [GW775610] shows %Inh strictly lower than 1%.
Reply text: Satisfied

* * *

test system: MAP3K4; details: concentration: 1 μM, replicates: in singlicate; n = 1
So I've got a bunch of molecules here, and I need their %Inh values.
One number for each entry, in %.

Past entries and their recorded results:
Cc1ccc(O)cc1Nc1ccnc2ccc(C(C)(C)C)cc12 [GW856805] :: 23
Cl.N#CCc1ccc(Nc2nccc(Nc3ccc(Oc4ccccc4)cc3)n2)cc1 [GW639905] :: 10

Now look at this one.
Inquiry: Any idea what its %Inh is? The molecule is CN(C)CCNS(=O)(=O)c1ccc(-c2ccnc3[nH]ccc23)cc1 [GSK977620]
Reply text: 0

* * *

test system: PLK1; conditions: concentration: 1 μM, replicates: in singlicate; n = 1
So I've got a bunch of molecules here, and I need their %Inh values.
Numbers only, in %.

Past entries and their recorded results:
Cc1ccccc1CC(=O)N1CCc2cc(-c3cn(C)c4ncnc(N)c34)ccc21 [GSK2603346] :: 0
COc1ccc(C2=C(Nc3cccc(O)c3)C(=O)NC2=O)cc1 [SB-390766] :: 95.9
COC(=O)Nc1nc2ccc(Oc3ccc(NC(=O)Nc4cc(C(F)(F)F)ccc4F)cc3)cc2[nH]1.Cl [GW654607] :: 0
CN(C)c1ncnc2nc[nH]c12 [SKF-31736] :: 12
COc1cc(Nc2ccnc3cc(-c4ccncc4)ccc23)cc(OC)c1OC.Cl [GW494610] :: 0

State recorded %Inh for all listed molecules.
1. O=C(Nc1n[nH]c2nc(-c3cccc(O)c3)ccc12)C1CC1 [SB-711805]
2. Cn1cc(-c2ccc3c(c2)CCN3C(=O)Cc2cc(F)cc(C(F)(F)F)c2)c2c(N)ncnc21 [GSK2635225]

Reply text:
0
8

* * *

system: LRRK2; settings: concentration: 1 μM, replicates: in singlicate; n = 1
readout_type: %Inh (%)
Numbers only, in %.

Past entries and their recorded results:
COc1ccc(NC(=O)c2ccoc2)cc1-c1ccc(C(=O)NCC2CC2)cc1 [GW810437] :: 20
COC(=O)Nc1nc2cc(Oc3ccc(NC(=O)Nc4cccc(SC)c4)cc3)ccc2[nH]1.Cl [GW697999] :: 18
Cn1cc(-c2ccc3c(c2)CCN3C(=O)Cc2cc(F)cc(F)c2F)c2c(N)ncnc21 [GSK2634140] :: 0

Now look at this one.
Inquiry: Any idea what its %Inh is? The molecule is Fc1cc(Cl)ccc1Nc1ccnc2cc(-c3ccc(CN4CCOCC4)o3)ccc12 [GW560109]
Reply text: 70

* * *

system: S6K1; conditions: concentration: 1 μM, replicates: in singlicate; n = 1
readout_type: %Inh

Past entries and their recorded results:
CCn1c(-c2nonc2N)nc2c(-c3ccccc3)ncc(OCCCN)c21.O=C(O)C(F)(F)F.O=C(O)C(F)(F)F [GSK260205] :: 44%
COc1cc(Nc2nccc(N3CCC(NS(=O)(=O)c4ccc(NC(C)=O)cc4)CC3)n2)cc(OC)c1OC [GSK1379825] :: 0%
Cn1cc(-c2ccc3c(c2)CCN3C(=O)Cc2cc(F)cc(C(F)(F)F)c2)c2c(N)ncnc21 [GSK2635225] :: 9%
O=C(Nc1c(F)cccc1F)c1cc(C(=O)c2ccccc2F)c[nH]1 [GSK1326180] :: 0%
Cc1ccc(NC(=O)c2ccc(Cl)c(Cl)c2)cc1-c1ccc(C(=O)Nc2ccncc2)cc1 [GSK1398460] :: 0%

State recorded %Inh for all listed compounds.
1. Cc1ccc(NC(=O)c2ccnc(N3CCCCC3)c2)cc1-c1ccc(C(=O)NCC2CC2)cc1 [GW775610]
2. O=C1NC(=O)C(c2ccccc2Cl)=C1Nc1cccc(Cl)c1 [SB-342409]
3. CN(c1ccc(F)c(NC(=O)c2cccc(OC(C)(C)C#N)c2Cl)c1)c1ccc2nc(NC(=O)C3CC3)sc2n1
4. CC(C)(C)c1ccc(C(=O)Nc2cn3cc(-n4ccnc4)ccc3n2)cc1

Reply text:
1: 19%; 2: 7%; 3: 1%; 4: 8%

* * *

tested on: TESK1; conditions: concentration: 1 μM, replicates: in singlicate; n = 1
readout_type: %Inh
Please answer using a numeric value trailed by its unit.

COc1ccc(C)c(Nc2ccnc(Nc3ccc(-c4cnc[nH]4)cc3)n2)c1.Cl :: 21%
Cc1ccc(Nc2ccnc(Nc3ccc(C)c(F)c3)n2)cc1O.Cl :: 0%
O=C(O)C(F)(F)F.O=c1[nH]ccc2nc(N[C@@H]3CCNC3)nc(Nc3ccc4c(c3)S(=O)(=O)CC4)c12 :: 0%
N#CC1(c2cccc(C(=O)Nc3cccc(Oc4ccc5nc(NC(=O)C6CC6)sc5n4)c3)c2)CC1 :: 9%
COc1ccc(C2=C(Nc3cccc(O)c3)C(=O)NC2=O)cc1 :: 12%

State recorded %Inh for all listed compounds.
1. CC(C)(C)c1ccc(C(=O)Nc2cn3cc(-n4ccnc4)ccc3n2)cc1
2. CN(C)c1ncnc2nc[nH]c12
3. Cl.Cl.NC(CNC(=O)c1cc(Br)c(-c2ccnc3[nH]ccc23)s1)c1ccccc1 (centres unmarked)
4. CN1CCN(Cc2ccc(NC(=O)Nc3ccc(N(C)c4ccnc(Nc5ccc(CS(C)(=O)=O)cc5)n4)cc3)cc2)CC1.Cl
5. N#Cc1cnc2cc(-c3cnc(CNCCN4CCOCC4)s3)ccc2c1Nc1ccc(Oc2ccccc2)cc1

Reply text:
1: 0%; 2: 0%; 3: 37%; 4: 0%; 5: 6%

Inquiry: Any idea what its %Inh is? The compound is `Cc1ccccc1CC(=O)N1CCc2cc(-c3cn(C)c4ncnc(N)c34)ccc21`
Reply text: 45%

* * *

So I've got a bunch of compounds here, and I need their %Inh values.
system: CHEK1; conditions: concentration: 1 μM, replicates: in singlicate; n = 1
One number for each entry, in %.

Past entries and their recorded results:
CNc1nccc(-c2ccc3c(N)n[nH]c3c2)n1 [GSK2206003] :: 0
Cc1ccc(NC(=O)c2ccc(Cl)c(Cl)c2)cc1-c1ccc(C(=O)Nc2ccncc2)cc1 [GSK1398460] :: 22
Cl.Cl.NCC(NC(=O)c1cc(-c2cccnc2)c(-c2ccnc3[nH]ccc23)s1)c1ccccc1 (stereo not drawn) [GSK1323434] :: 0

State recorded %Inh for all listed compounds.
1. c1ccc(Oc2ccc(Nc3ccnc4cc(-c5ccc(CN6CCCCC6)o5)ccc34)cc2)nc1 [GW567143]
2. CCn1c(-c2nonc2N)nc2c(-c3ccccc3)ncc(OCCCN)c21.O=C(O)C(F)(F)F.O=C(O)C(F)(F)F [GSK260205]

Reply text:
0
0

State recorded %Inh for all listed compounds.
1. CC(C)c1nc(-c2cccc(NS(=O)(=O)c3c(F)cccc3F)c2)c(-c2ccnc(Nc3ccc(N4CCOCC4)nc3)n2)s1.Cl [GSK1723980]
2. O=C(O)C(F)(F)F.O=c1[nH]ccc2nc(N[C@@H]3CCNC3)nc(Nc3ccc4c(c3)S(=O)(=O)CC4)c12 [GSK2181306]
3. COc1ccc(C)c(Nc2ccnc(Nc3ccc(-c4cnc[nH]4)cc3)n2)c1.Cl [GW784041]
4. CC(C)c1nc(-c2ccc(F)c(NS(=O)(=O)c3c(F)cccc3F)c2)c(-c2ccnc(Nc3ccc(N4CCOCC4)nc3)n2)s1 [GSK1804250]

Reply text:
1: 0; 2: 98.3; 3: 0; 4: 0
